- TESTED_ON: CAMKK2 (human)
- TEST_PROTOCOL: KINOMEscan competition binding
- ASSAY_CONDITIONS: compound 10.0 µM
kinase still bound, per cent of control values, listed per item

{"columns": ["INPUT_SMILES", "kinase still bound, per cent of control"],
 "data": [
  ["O=C(NC1CC1)c1cccc(-c2ccc3c(NC(=O)C4CC4)n[nH]c3c2)c1", "94%"],
  ["COc1cc(N2CCN(C)CC2)ccc1Nc1nc(N)c(C(=O)c2c(Cl)cccc2Cl)s1", "14%"],
  ["C=CC(=O)Nc1cccc(Nc2nc(N[C@H]3CC[C@H](N(C)C)CC3)nc3c2ncn3C(C)C)c1", "25%"]
]}

Indicate its recorded kinase still bound, per cent of control; the compound in question is "Cn1c(=O)n(-c2ccc(C(C)(C)C#N)cc2)c2c3cc(-c4cnc5ccccc5c4)ccc3ncc21"
100%

Output measured kinase still bound, per cent of control for this item: "O=C1Nc2ccc(I)cc2/C1=C/c1cc(Br)c(O)c(Br)c1"
9%

Given the compound "CC[C@@H]1C(=O)N(C)c2cnc(Nc3ccc(C(=O)NC4CCN(C)CC4)cc3OC)nc2N1C1CCCC1" , write its reported kinase still bound, per cent of control.
1.9%

Report kinase still bound, per cent of control, nothing else, for this compound: "N#Cc1c(NC(=O)c2cccc3ccccc23)sc2c1CCCC2"
94%

Identify kinase still bound, per cent of control associated with the compound "OCCCNc1cc(-c2ccnc(Nc3cccc(Cl)c3)n2)ccn1"
100%

In one line, give reported kinase still bound, per cent of control of the entry "C=CC(=O)Nc1cccc(Oc2nc(Nc3ccc(N4CCN(C)CC4)cc3OC)ncc2Cl)c1" .
10%
